- Target system: glucagon receptor (GCGR), primary cAMP assay cell line (human, UniProt P47871 26-477)
- Sequence (P47871 26-477): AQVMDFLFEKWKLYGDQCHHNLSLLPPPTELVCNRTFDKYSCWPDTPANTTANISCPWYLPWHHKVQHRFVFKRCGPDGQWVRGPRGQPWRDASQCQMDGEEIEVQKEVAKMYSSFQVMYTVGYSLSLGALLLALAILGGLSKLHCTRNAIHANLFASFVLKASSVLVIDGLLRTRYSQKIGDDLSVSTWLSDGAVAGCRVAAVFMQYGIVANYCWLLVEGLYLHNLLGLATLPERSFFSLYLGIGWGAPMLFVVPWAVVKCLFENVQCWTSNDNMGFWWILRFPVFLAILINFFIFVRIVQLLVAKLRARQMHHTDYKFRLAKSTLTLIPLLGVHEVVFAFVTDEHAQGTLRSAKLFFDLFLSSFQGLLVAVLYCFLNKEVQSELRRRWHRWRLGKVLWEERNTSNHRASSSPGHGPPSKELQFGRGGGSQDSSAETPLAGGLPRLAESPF
- Procedure summary: cell-based or functional assay
Starred links: 1 amine or outer side, 2 acyl side, 3 side chain; linkers in the order of their positions; H or OH if unused. Non-standard residues stand in square brackets, D forms with d. Groups on a side chain read outwards from the residue. Primed or numbered codes have the meaning given here. No end group written: not given here. *: point of attachment. γGlu = O=C(O)[C@H](CCC(=O)[*:2])N[*:1]; αMeF = C[C@](N)(Cc1ccccc1)C(=O)O; αMeK = C[C@](N)(CCCCN)C(=O)O; Lauroyl = CCCCCCCCCCCC(=O)*; αMeS = C[C@](N)(CO)C(=O)O; PEG2′ = not defined here; Aib = CC(C)(N)C(=O)O
Listing: cAMP Primary assay EC50, n1 of selected binders
Kindly provide the numeric value in nM only, without the unit symbol.

response.value for H[Aib]EGS[αMeF]TSDV[αMeS]SK([PEG2′-PEG2′-γGlu-Lauroyl])LEGK([PEG2′-PEG2′-γGlu-Lauroyl])AA[αMeK]EFIK([PEG2′-PEG2′-γGlu-Lauroyl])FVVEGG-NH2 [SEQ ID NO: 448] (field: cAMP Primary assay EC50, n1) = 19.9

cAMP Primary assay EC50, n1 in this record for H[Aib]EGS[αMeF]TSDV[αMeS]SYK([PEG2′-PEG2′-γGlu-Lauroyl])EGK([PEG2′-PEG2′-γGlu-Lauroyl])AA[αMeK]EFIAFK([PEG2′-PEG2′-γGlu-Lauroyl])VEGG-NH2 [SEQ ID NO: 484] : 19.9

response.value for H[Aib]EGS[αMeF]TSDVSK([PEG2′-PEG2′-γGlu-Lauroyl])YLEGEAA[αMeK]K([PEG2′-PEG2′-γGlu-Lauroyl])FIK([PEG2′-PEG2′-γGlu-Lauroyl])FVVEGG-NH2 [SEQ ID NO: 446] (field: cAMP Primary assay EC50, n1) = 19.7

Please fill in: cAMP Primary assay EC50, n1 reported for H[Aib]EGS[αMeF]TSDK([PEG2′-PEG2′-γGlu-Lauroyl])SSYLEK([PEG2′-PEG2′-γGlu-Lauroyl])EAA[αMeK]EFIAFK([PEG2′-PEG2′-γGlu-Lauroyl])VEGG-NH2 [SEQ ID NO: 471] = 19.6

The recorded cAMP Primary assay EC50, n1 for entry H[Aib]EGS[αMeF]TSDK([PEG2′-PEG2′-γGlu-Lauroyl])SSYLEGEAA[αMeK]K([PEG2′-PEG2′-γGlu-Lauroyl])FIK([PEG2′-PEG2′-γGlu-Lauroyl])FVVEGG-NH2 [SEQ ID NO: 442] equals 19.7

Lookup result for H[Aib]EGS[αMeF]TSDV[αMeS]SYK([PEG2′-PEG2′-γGlu-Lauroyl])EK([PEG2′-PEG2′-γGlu-Lauroyl])EAA[αMeK]EFIAFK([PEG2′-PEG2′-γGlu-Lauroyl])VEGG-NH2 [SEQ ID NO: 483] ; measured cAMP Primary assay EC50, n1: 19.6

Form field cAMP Primary assay EC50, n1, entry H[Aib]EGS[αMeF]TSDK([PEG2′-PEG2′-γGlu-Lauroyl])SSYLEGEK([PEG2′-PEG2′-γGlu-Lauroyl])A[αMeK]EFIK([PEG2′-PEG2′-γGlu-Lauroyl])FVVEGG-NH2 [SEQ ID NO: 441] : 19.5
